assay: Drug level in HIV-negative human serum at 300 mg, po administered every 12 hrs coadministered with 600 mg of rifampin every 24 hrs measured at 12 hrs; type: ADME, organism-based
OBSERVATION TYPE: concentration at 12 h (ng/mL)
Give the quantity in ng/mL, number only.

Prompt line: // concentration at 12 h lookup, key: COC(=O)N[C@H](C(=O)N[C@@H](Cc1ccccc1)[C@@H](O)CN(Cc1ccc(-c2ccccn2)cc1)NC(=O)[C@@H](NC(=O)OC)C(C)(C)C)C(C)(C)C [ATAZANAVIR]
Response line: 44

====

assay: AUC (12 hrs) in HIV-negative human at 300 mg, po administered every 12 hrs; assay type: ADME, organism-based; design: time < 12 hr, dose 300 mg, route oral; conditions: plasma
OBSERVATION TYPE: AUC at 12 h (ng·h/mL)
Please respond with the number in ng·h/mL and leave the unit unwritten.

Prompt line: Any idea what its AUC at 12 h is? The compound is COC(=O)N[C@H](C(=O)N[C@@H](Cc1ccccc1)[C@@H](O)CN(Cc1ccc(-c2ccccn2)cc1)NC(=O)[C@@H](NC(=O)OC)C(C)(C)C)C(C)(C)C [ATAZANAVIR]
Response line: 23800

====

assay: Tmax in HIV-negative human at 400 mg, po administered every 12 hrs coadministered with 600 mg of rifampin every 24 hrs; type: ADME, organism-based; conditions: in vivo
OBSERVATION TYPE: Tmax (h)
The reply should be a number in h, with the unit left off.

Prompt line: Consider the compound shown here: COC(=O)N[C@H](C(=O)N[C@@H](Cc1ccccc1)[C@@H](O)CN(Cc1ccc(-c2ccccn2)cc1)NC(=O)[C@@H](NC(=O)OC)C(C)(C)C)C(C)(C)C What is its recorded Tmax?
Response line: 2.9

====

assay: AUC (24 hrs) in HIV-negative human at 400 mg, po administered every 12 hrs coadministered with 600 mg of rifampin every 24 hrs; assay type: ADME, organism-based; parameters: dose 400 mg, time < 24 hr, route oral; conditions: plasma
OBSERVATION TYPE: AUC at 24 h (ng·h/mL)
Value expressed in ng·h/mL; do not type the unit.

Prompt line: // query AUC at 24 h value for entry COC(=O)N[C@H](C(=O)N[C@@H](Cc1ccccc1)[C@@H](O)CN(Cc1ccc(-c2ccccn2)cc1)NC(=O)[C@@H](NC(=O)OC)C(C)(C)C)C(C)(C)C
Response line: 19600

====

assay: Tmax in HIV-negative human at 300 mg, po administered every 12 hrs; type: ADME, organism-based; conditions: in vivo
OBSERVATION TYPE: Tmax (h)
Value expressed in h; do not type the unit.

Prompt line: # get_value(readout='Tmax', item= COC(=O)N[C@H](C(=O)N[C@@H](Cc1ccccc1)[C@@H](O)CN(Cc1ccc(-c2ccccn2)cc1)NC(=O)[C@@H](NC(=O)OC)C(C)(C)C)C(C)(C)C )
Response line: 3.2

====

Listing: Cmax of selected molecules
assay: Cmax in HIV-negative human at 600 mg, po administered every 24 hrs coadministered with 400 mg of atazanavir every 12 hrs; assay type: ADME, organism-based; parameters: dose 600 mg, route oral; conditions: in vivo
Numbers only here, please. The scale is ng/mL.

INSERT INTO results (compound, measure_unit, number) VALUES
  ('CO[C@H]1/C=C/O[C@@]2(C)Oc3c(C)c(O)c4c(O)c(c(/C=N/N5CCN(C)CC5)c(O)c4c3C2=O)NC(=O)/C(C)=C\C=C\[C@H](C)[C@H](O)[C@@H](C)[C@@H](O)[C@@H](C)[C@H](O)[C@@H]1C', 'ng/mL', 1710);

Turning now to a further record.
Prompt line: Give its Cmax value. Item: CO[C@H]1/C=C/O[C@@]2(C)Oc3c(C)c(O)c4c(O)c(c(/C=N/N5CCN(C)CC5)c(O)c4c3C2=O)NC(=O)/C(C)=C\C=C\[C@H](C)[C@H](O)[C@@H](C)[C@@H](O)[C@@H](C)[C@H](OC(C)=O)[C@@H]1C
Response line: 10100

src = ChEMBL document CHEMBL1143406
